Listing of recorded EC50 by entry.
test-target: human D2R/β-arrestin (Homo sapiens (Human), UniProt P14416)
Sequence (P14416 whole entry): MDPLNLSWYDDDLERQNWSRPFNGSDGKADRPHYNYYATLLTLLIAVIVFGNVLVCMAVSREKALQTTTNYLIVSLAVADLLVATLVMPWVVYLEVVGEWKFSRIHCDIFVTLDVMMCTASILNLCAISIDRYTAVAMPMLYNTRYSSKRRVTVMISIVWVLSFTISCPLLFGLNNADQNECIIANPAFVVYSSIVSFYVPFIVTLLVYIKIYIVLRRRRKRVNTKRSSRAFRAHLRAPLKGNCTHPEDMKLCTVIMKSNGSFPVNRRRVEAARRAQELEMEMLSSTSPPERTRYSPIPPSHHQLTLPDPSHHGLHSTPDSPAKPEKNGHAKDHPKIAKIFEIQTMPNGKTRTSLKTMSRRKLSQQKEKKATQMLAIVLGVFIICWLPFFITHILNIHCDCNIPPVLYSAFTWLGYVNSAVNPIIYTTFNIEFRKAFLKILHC
protocol-summary: Gi/cAMP agonist assay (Lance Ultra cAMP, forskolin)
Type: cell-based
measurement-setup: CHO-K1 cells expressing human D2R/β-arrestin; agonist mode, 2.5 μM forskolin

{"compound": "CC1(Oc2ccc(Cl)cc2)CCN(CCn2ccccc2=O)C1 (stereo not drawn)", "EC50": "> 30000 nM"}

Dear colleague, I am looking for the recorded EC50 of the following compound: CC1(Oc2ccc(Cl)cc2)CCN(CCOc2ccc(F)cc2F)C1 (stereo not drawn)
< 100 nM

Also CC1(C(=O)Nc2ccccc2)CCN(CC2COc3ccccc3O2)CC1 (single isomer, unassigned) [Compound 204b] , if possible.
< 100 nM

Also CC1(Oc2ccc(Cl)cc2)CCN(CCOc2ccc3ncsc3c2)C1 (stereo not drawn) [Compound 18b] , if possible.
100 to 1000 nM

Also CC1(Oc2ccc(Cl)cc2)CCN(CC(=O)Nc2ccccc2C(F)(F)F)CC1 , if possible.
> 30000 nM

Also COc1ccccc1OC1(C)CCN(CCOc2ccccc2)C1 (stereo not drawn) , if possible.
1000 to 10000 nM

Also CC1(Oc2ccc(Cl)cc2)CCN(CCOc2ccc(C(F)(F)F)nc2)C1 (stereo not drawn) , if possible.
100 to 1000 nM

Also CC(CO)N1CCC(C)(Oc2ccccc2)CC1 (stereo not drawn) , if possible.
1000 to 10000 nM

Also CC1(Oc2ccccc2)CCN(CCOc2ccccc2F)CC1 , if possible.
< 100 nM
